# condition_summary: 358.15 K; 101.33 kPa; Liquid; Vibrating tube method
value_kind: mass density (kg/m3)
Expressed in kg/m3, but write only the number.

Check out these entries, answers already filled in.
substance_smiles=COCCOCCOCCOC value_kind="mass density" result_number=924.2
substance_smiles=OCCO value_kind="mass density" result_number=1067.8
substance_smiles=OCCOCCOCCO value_kind="mass density" result_number=1073.8

Let us move to another entry and its mass density.
Ask | Dear colleague, I am looking for the recorded mass density of the following molecule: COCCOCCOC
Reply | 879.4

* * *

# condition_summary: 343.15 K; 101.33 kPa; Liquid; Sing-around technique in a fixed-path interferometer
value_kind: speed of sound (m/s)
Expressed in m/s, but write only the number.

Check out these entries, answers already filled in.
substance_smiles=COCCOCCOCCOCCOC result_number=1218.5
substance_smiles=OCCOCCO result_number=1470.1
substance_smiles=OCCOCCOCCO result_number=1477.5
substance_smiles=CCOCCOCCO result_number=1218.9
substance_smiles=OCCO result_number=1547.4
substance_smiles=COCCOCCOCCOC result_number=1174
substance_smiles=CCOCCO result_number=1143.7
substance_smiles=COCCOCCOC result_number=1105.8
substance_smiles=CCOCCOCCOCC result_number=1071.6

Let us move to another entry and its speed of sound.
Ask | Dear colleague, I am looking for the recorded speed of sound of the following compound: COCCOCCO
Reply | 1262.7

Just for reference, the NIST ThermoML archive (doi:10.1021/acs.jced.5b00662) is where these values come from.
